# test_details: Growth inhibition of EAC cells at 31.25 ug/mL after 3 hrs
# Format: functional
# assay_context: Mus musculus, Ehrlich
Residues, ends and D or L forms follow the SMILES beside them. *: point of attachment. X2 = O=C(c1cc(-c2nc3ccc([N+](=O)[O-])cc3[nH]2)ccc1O)*; X1 = Cc1cc2nc(-c3ccc(O)c(C(=O)*)c3)[nH]c2cc1C
Label t when inhibition at 31.25 µg/mL is at or above 4%; anything below gets f.

compound	assigned_category
COC(=O)CNC(=O)[C@H](CC(C)C)NC(=O)[C@@H]1CCCN1C(=O)[C@H](Cc1cnc[nH]1)NC(=O)c1cc(-c2nc3ccc([N+](=O)[O-])cc3[nH]2)ccc1O (X2-HPLG-OMe)	f
COC(=O)[C@H](Cc1cnc[nH]1)NC(=O)[C@H](Cc1cnc[nH]1)NC(=O)c1cc(-c2nc3cc(C)c(C)cc3[nH]2)ccc1O	f
COC(=O)[C@H](Cc1cnc[nH]1)NC(=O)CNC(=O)[C@H](Cc1c[nH]c2ccccc12)NC(=O)CNC(=O)c1cc(-c2nc3cc(C)c(C)cc3[nH]2)ccc1O (X1-GWGH-OMe)	t
O=C(O)[C@@H]1CCCN1C(=O)[C@@H]1CCCN1C(=O)[C@@H]1CCCN1C(=O)c1cc(-c2nc3ccc([N+](=O)[O-])cc3[nH]2)ccc1O	f
C[C@H](NC(=O)[C@@H]1CCCN1C(=O)c1cc(-c2nc3ccc([N+](=O)[O-])cc3[nH]2)ccc1O)C(=O)O	t
Cc1cc2nc(-c3ccc(O)c(C(=O)NCC(=O)N[C@@H](Cc4c[nH]c5ccccc45)C(=O)NCC(=O)N[C@@H](Cc4cnc[nH]4)C(=O)O)c3)[nH]c2cc1C (X1-GWGH-OH)	t
Cc1cc2nc(-c3ccc(C(=O)N[C@@H](Cc4cnc[nH]4)C(=O)N[C@@H](Cc4ccc(O)cc4)C(=O)O)cc3)[nH]c2cc1C	f
COC(=O)[C@H](CCCNC(=N)N[N+](=O)[O-])NC(=O)[C@@H]1CCCN1C(=O)c1cc(I)c(-c2nc3cc(C)c(C)cc3[nH]2)c(I)c1	t
Cc1cc2nc(-c3c(I)cc(C(=O)N[C@@H](Cc4cnc[nH]4)C(=O)N4CCC[C@H]4C(=O)O)cc3I)[nH]c2cc1C	t
CC(C)[C@H](NC(=O)c1cc(-c2nc3ccc([N+](=O)[O-])cc3[nH]2)ccc1O)C(=O)N[C@@H](Cc1ccccc1)C(=O)N[C@@H](Cc1cnc[nH]1)C(=O)O	f

----------
# Tested on: Pontoscolex corethrurus
# test_details: Anthelmintic activity against Pontoscolex corethrurus ICARBC 408 assessed as mean death time
# Type: functional
Residues, ends and D or L forms follow the SMILES beside them. *: point of attachment. X3 = Cc1cc2nc(-c3c(I)cc(C(=O)*)cc3I)[nH]c2cc1C; X1 = Cc1cc2nc(-c3ccc(O)c(C(=O)*)c3)[nH]c2cc1C; X4 = Cc1cc2nc(-c3ccc(C(=O)*)cc3)[nH]c2cc1C
Time values for the compounds below.
measured_attribute: Time (min)

compound	experimental_target	measured_attribute	unit_of_measure	obs_value
COC(=O)[C@@H](NC(=O)c1cc(I)c(-c2nc3cc(C)c(C)cc3[nH]2)c(I)c1)[C@@H](C)O	Pontoscolex corethrurus	Time	min	78.32
Cc1cc2nc(-c3c(I)cc(C(=O)N[C@@H](C)C(=O)N[C@@H](Cc4ccc(O)cc4)C(=O)NCC(=O)O)cc3I)[nH]c2cc1C	Pontoscolex corethrurus	Time	min	47.45
COC(=O)[C@H](CCCNC(=N)N[N+](=O)[O-])NC(=O)[C@@H]1CCCN1C(=O)c1cc(I)c(-c2nc3cc(C)c(C)cc3[nH]2)c(I)c1	Pontoscolex corethrurus	Time	min	34.45
COC(=O)[C@H](C)NC(=O)[C@H](CCCNC(=N)N[N+](=O)[O-])NC(=O)c1cc(-c2nc3cc(C)c(C)cc3[nH]2)ccc1O	Pontoscolex corethrurus	Time	min	32.65
COC(=O)[C@H](Cc1cnc[nH]1)NC(=O)c1cc(I)c(-c2nc3cc(C)c(C)cc3[nH]2)c(I)c1	Pontoscolex corethrurus	Time	min	47.82
Cc1cc2nc(-c3ccc(O)c(C(=O)N[C@@H](Cc4c[nH]c5ccccc45)C(=O)N[C@@H](C)C(=O)N[C@@H](Cc4ccc(O)cc4)C(=O)O)c3)[nH]c2cc1C	Pontoscolex corethrurus	Time	min	29.19
Cc1cc2nc(-c3ccc(O)c(C(=O)N[C@@H](C)C(=O)N[C@H](C(=O)N[C@@H](C)C(=O)O)C(C)C)c3)[nH]c2cc1C	Pontoscolex corethrurus	Time	min	41.6
COC(=O)Nc1nc2cc(C(=O)c3ccccc3)ccc2[nH]1 [MEBENDAZOLE]	Pontoscolex corethrurus	Time	min	29.64
COC(=O)[C@H](Cc1ccccc1)NC(=O)c1cc(-c2nc3cc(C)c(C)cc3[nH]2)ccc1O	Pontoscolex corethrurus	Time	min	42.56
O=C(O)CNC(=O)CNC(=O)c1cc(-c2nc3ccc([N+](=O)[O-])cc3[nH]2)ccc1O	Pontoscolex corethrurus	Time	min	42.26
O=C(O)[C@@H]1CCCN1C(=O)[C@@H]1CCCN1C(=O)[C@@H]1CCCN1C(=O)c1cc(-c2nc3ccc([N+](=O)[O-])cc3[nH]2)ccc1O	Pontoscolex corethrurus	Time	min	40.2
CC[C@H](C)[C@H](NC(=O)CNC(=O)c1cc(I)c(-c2nc3cc(C)c(C)cc3[nH]2)c(I)c1)C(=O)NCC(=O)N[C@H](C(=O)OC)[C@@H](C)O (X3-GIGT-OMe)	Pontoscolex corethrurus	Time	min	82.3
Cc1cc2nc(-c3c(I)cc(C(=O)N[C@@H](Cc4cnc[nH]4)C(=O)N4CCC[C@H]4C(=O)O)cc3I)[nH]c2cc1C	Pontoscolex corethrurus	Time	min	29.33
Cc1cc2nc(-c3c(I)cc(C(=O)N[C@@H](Cc4ccccc4)C(=O)N[C@H](C(=O)N4CCC[C@H]4C(=O)O)C(C)C)cc3I)[nH]c2cc1C	Pontoscolex corethrurus	Time	min	50.13
CC[C@H](C)[C@H](NC(=O)[C@H](CC(C)C)NC(=O)c1cc(-c2nc3cc(C)c(C)cc3[nH]2)ccc1O)C(=O)OC	Pontoscolex corethrurus	Time	min	41.53
COC(=O)[C@H](Cc1ccccc1)NC(=O)[C@@H]1CCCN1C(=O)[C@@H]1CCCN1C(=O)c1ccc(-c2nc3cc(C)c(C)cc3[nH]2)cc1	Pontoscolex corethrurus	Time	min	72.24
Cc1cc2nc(-c3ccc(C(=O)N[C@@H](CC(C)C)C(=O)NCC(=O)O)cc3)[nH]c2cc1C	Pontoscolex corethrurus	Time	min	48.39
CC[C@H](C)[C@H](NC(=O)CNC(=O)[C@H](Cc1c[nH]c2ccccc12)NC(=O)c1ccc(-c2nc3cc(C)c(C)cc3[nH]2)cc1)C(=O)N[C@@H](C)C(=O)OC (X4-WGIA-OMe)	Pontoscolex corethrurus	Time	min	29.57
COC(=O)[C@H](Cc1cnc[nH]1)NC(=O)[C@H](Cc1cnc[nH]1)NC(=O)c1cc(-c2nc3cc(C)c(C)cc3[nH]2)ccc1O	Pontoscolex corethrurus	Time	min	23.75
COC(=O)[C@H](C)NC(=O)[C@@H](NC(=O)[C@H](C)NC(=O)c1cc(-c2nc3cc(C)c(C)cc3[nH]2)ccc1O)C(C)C	Pontoscolex corethrurus	Time	min	41.79
COC(=O)[C@@H]1CCCN1C(=O)c1ccc(-c2nc3cc(C)c(C)cc3[nH]2)cc1	Pontoscolex corethrurus	Time	min	50.26
COC(=O)[C@@H]1CCCN1C(=O)[C@H](Cc1cnc[nH]1)NC(=O)c1cc(I)c(-c2nc3cc(C)c(C)cc3[nH]2)c(I)c1	Pontoscolex corethrurus	Time	min	29.58
COC(=O)[C@H](CCCNC(=N)N[N+](=O)[O-])NC(=O)c1cc(-c2nc3ccc([N+](=O)[O-])cc3[nH]2)ccc1O	Pontoscolex corethrurus	Time	min	32.22
COC(=O)[C@H](Cc1c[nH]c2ccccc12)NC(=O)c1cc(I)c(-c2nc3cc(C)c(C)cc3[nH]2)c(I)c1	Pontoscolex corethrurus	Time	min	29.29
Cc1cc2nc(-c3ccc(O)c(C(=O)NCC(=O)N[C@@H](Cc4c[nH]c5ccccc45)C(=O)NCC(=O)N[C@@H](Cc4cnc[nH]4)C(=O)O)c3)[nH]c2cc1C (X1-GWGH-OH)	Pontoscolex corethrurus	Time	min	24.52
COC(=O)CNC(=O)[C@H](Cc1ccc(O)cc1)NC(=O)[C@H](C)NC(=O)c1cc(I)c(-c2nc3cc(C)c(C)cc3[nH]2)c(I)c1	Pontoscolex corethrurus	Time	min	48.24
COC(=O)[C@H](CCCNC(=N)N[N+](=O)[O-])NC(=O)c1ccc(-c2nc3cc(C)c(C)cc3[nH]2)cc1	Pontoscolex corethrurus	Time	min	35.22
